We begin with a simple list: items and their reported hERG current change (%, negative = inhibition) at 10uM.
# ASSAY SYSTEM: human ether-à-go-go-related gene (hERG) potassium channel (human, UniProt Q12809);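 note: peak tail current of the secondary pulse compared with the same well before compound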
# Sequence (Q12809 whole entry, looked up): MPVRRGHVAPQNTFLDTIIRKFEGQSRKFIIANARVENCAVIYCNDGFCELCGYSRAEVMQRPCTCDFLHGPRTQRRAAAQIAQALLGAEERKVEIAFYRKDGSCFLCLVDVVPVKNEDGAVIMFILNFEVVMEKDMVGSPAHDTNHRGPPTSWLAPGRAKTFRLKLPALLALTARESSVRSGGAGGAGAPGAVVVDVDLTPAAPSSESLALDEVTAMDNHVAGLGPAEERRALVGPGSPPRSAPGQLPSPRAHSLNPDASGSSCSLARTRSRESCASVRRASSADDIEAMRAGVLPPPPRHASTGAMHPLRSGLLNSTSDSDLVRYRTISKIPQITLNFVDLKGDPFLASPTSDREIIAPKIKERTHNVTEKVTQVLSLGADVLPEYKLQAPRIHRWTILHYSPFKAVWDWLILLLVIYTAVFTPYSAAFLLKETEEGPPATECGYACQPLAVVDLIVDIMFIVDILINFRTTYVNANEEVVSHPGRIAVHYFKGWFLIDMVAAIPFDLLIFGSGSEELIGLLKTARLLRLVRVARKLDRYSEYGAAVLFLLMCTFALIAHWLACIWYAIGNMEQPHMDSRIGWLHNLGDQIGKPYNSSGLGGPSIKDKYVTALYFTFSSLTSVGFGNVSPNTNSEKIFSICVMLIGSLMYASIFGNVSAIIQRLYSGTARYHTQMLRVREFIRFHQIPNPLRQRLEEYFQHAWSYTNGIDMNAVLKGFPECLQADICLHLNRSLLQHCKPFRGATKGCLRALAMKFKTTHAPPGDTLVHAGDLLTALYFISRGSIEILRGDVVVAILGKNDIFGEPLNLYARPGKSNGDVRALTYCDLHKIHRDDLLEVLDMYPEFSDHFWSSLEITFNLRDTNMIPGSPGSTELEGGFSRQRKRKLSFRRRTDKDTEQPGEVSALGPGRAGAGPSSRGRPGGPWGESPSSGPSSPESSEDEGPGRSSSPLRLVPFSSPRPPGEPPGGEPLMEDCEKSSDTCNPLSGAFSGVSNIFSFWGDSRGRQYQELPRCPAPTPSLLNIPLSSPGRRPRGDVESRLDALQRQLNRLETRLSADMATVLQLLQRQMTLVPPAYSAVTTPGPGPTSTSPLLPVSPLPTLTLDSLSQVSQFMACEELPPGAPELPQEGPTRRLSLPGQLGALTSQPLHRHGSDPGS
# PROTOCOL DESCRIPTION: primary screen, population patch clamp on CHO cells stably expressing hERG; higher = less effect of the substance
# Method: Briefly, Chinese hamster ovary (CHO) cells stably expressing the hERG channel were dislodged from tissue culture flasks and dispensed into PPC plates. […] During the recording, background leak currents were estimated by a 100 ms step to -80 mV from an initial holding potential of -70 mV and subtracted from the subsequent current measurement. The campaign was conducted in two phases using slight differences in recording protocol. […]
Hit rate of the full screen: of about 310,000 compounds, about 14,000 (4.5%) showed an effect of 50% or more. The effect is printed as a negative number. The sample holds strong results, similar compounds and a random draw of the others, so the mix is not that of the screen.
Only the number, expressed in %, is required.

MOLECULE | EXPERIMENTAL VALUE
Cn1nccc1NC(=O)Nc1cccc(Cl)c1Cl | 16.5

Enquiry: # get_value(readout='hERG current change (%, negative = inhibition) at 10uM', item= `Fc1ccc(NC(=S)NCCc2ccccc2)c(F)c1F` )
Return: -1.12

Enquiry: Follow-up item: CCOC(=O)C1CCCN(C(=O)/C=C/c2ccccc2[N+](=O)[O-])C1 (stereo not shown)
Return: -12.6

Enquiry: Follow-up item: CCOC(=O)C1CCCN(C(=O)/C=C/c2cccc([N+](=O)[O-])c2)C1 (stereo not shown)
Return: -41.8

Origin of measurements: paper PMC4336329
